# Assay procedure: Highest frequency of acute liver toxicity observed during clinical trials, expressed as a percentage. [column '% AIGUE' in source]
# Stated conditions: human
Entries and their Hepatotoxicity (acute) values follow.
Numbers only; they are read as %.

Examples from the recorded data:
>  <Molecule>
N=C(N)NCC1COc2ccccc2O1 (stereo not given) [GUANOXAN]

>  <Reported value>
10

$$$$
>  <Molecule>
CN1C(=O)CN=C(c2ccccc2)c2cc(Cl)ccc21 [DIAZEPAM]

>  <Reported value>
0

$$$$
>  <Molecule>
O=c1[nH]c(=O)n([C@H]2C[C@H](O)[C@@H](CO)O2)cc1I [IDOXURIDINE]

>  <Reported value>
0

$$$$
>  <Molecule>
Cc1cc(CC(=O)O)n(C)c1C(=O)c1ccc(Cl)cc1 [ZOMEPIRAC]

>  <Reported value>
0

$$$$

Read the next record carefully.
Sure, the documented Hepatotoxicity (acute) for COCC1=C(C(=O)O)N2C(=O)[C@@H](NC(=O)/C(=N\OC)c3csc(N)n3)[C@H]2SC1 [CEFPODOXIME] is 0

* * *

Here the recorded Hepatotoxicity (choleostasis) is given for each entry.
# Stated conditions: human
Field format: numeric only.

Below, each entry is followed by its recorded Hepatotoxicity (choleostasis) result.
>  <Compound>
CC(=O)O[C@]1(C(C)=O)CC[C@H]2[C@@H]3C=C(C)C4=CC(=O)CC[C@]4(C)[C@H]3CC[C@@]21C [MEGESTROL ACETATE]

>  <Hepatotoxicity (choleostasis)>
0

$$$$
>  <Compound>
COc1cc2[nH]c(C)c(CCN3CCN(c4ccccc4)CC3)c2cc1OC

>  <Hepatotoxicity (choleostasis)>
0

$$$$
>  <Compound>
Oc1ccc2[nH]cc(CCCCN3CC=C(c4ccccc4)CC3)c2c1

>  <Hepatotoxicity (choleostasis)>
0

$$$$
>  <Compound>
O=C(Cc1cccs1)N[C@@H]1C(=O)N2C(C(=O)[O-])=C(C[n+]3ccccc3)CS[C@H]12

>  <Hepatotoxicity (choleostasis)>
0

$$$$
>  <Compound>
CO/N=C(\C(=O)N[C@@H]1C(=O)N2C(C(=O)[O-])=C(C[n+]3ccc(N)n3CCO)CS[C@H]12)c1csc(N)n1

>  <Hepatotoxicity (choleostasis)>
0

$$$$

Then there is this compound:
Record summary for CC(C)(Oc1ccc(CCNC(=O)c2ccc(Cl)cc2)cc1)C(=O)O [BEZAFIBRATE] : reported Hepatotoxicity (choleostasis) = 0

* * *

# Stated conditions: human, serum
Observable: Hepatotoxicity (acute)
API note: the answer field is a bare number with no unit suffix.

As a guide, the following entries are already answered.
>  <Compound>
Cc1oncc1C(=O)Nc1ccc(C(F)(F)F)cc1 [LEFLUNOMIDE]

>  <Hepatotoxicity (acute)>
6

$$$$
>  <Compound>
C[C@H]1CC(=O)C[C@@H]2CC[C@H]3[C@@H]4CC[C@H](O)[C@@]4(C)CC[C@@H]3[C@]21C [MESTEROLONE]

>  <Hepatotoxicity (acute)>
1

$$$$
>  <Compound>
O=C(O)COC(=O)Cc1ccccc1Nc1c(Cl)cccc1Cl [ACECLOFENAC]

>  <Hepatotoxicity (acute)>
3

$$$$
>  <Compound>
O=c1[nH]c(=O)n(C2CCCO2)cc1F (centres undefined) [TEGAFUR]

>  <Hepatotoxicity (acute)>
3

$$$$
>  <Compound>
Cc1cc(O)c(C(=O)N[C@@H](C(=O)N[C@@H]2C(=O)N3C(C(=O)O)=C(CSc4nnnn4C)CS[C@H]23)c2ccc(O)cc2)cn1 [CEFPIRAMIDE]

>  <Hepatotoxicity (acute)>
1

$$$$
>  <Compound>
CCCN1C[C@H](CSC)C[C@@H]2c3cccc4[nH]cc(c34)C[C@H]21 [PERGOLIDE]

>  <Hepatotoxicity (acute)>
0

$$$$
>  <Compound>
CC[C@@H](CO)NCCN[C@@H](CC)CO [ETHAMBUTOL]

>  <Hepatotoxicity (acute)>
6

$$$$
>  <Compound>
CC(C)C(=O)Nc1ccc([N+](=O)[O-])c(C(F)(F)F)c1 [FLUTAMIDE]

>  <Hepatotoxicity (acute)>
31

$$$$
>  <Compound>
CCCCC(=O)N(Cc1ccc(-c2ccccc2-c2nnn[nH]2)cc1)[C@H](C(=O)O)C(C)C

>  <Hepatotoxicity (acute)>
3

$$$$
>  <Compound>
CC(C)(C)c1ccc(CCC(O)COc2ccc(C(=O)O)cc2)cc1 (centres undefined) [LIFIBROL]

>  <Hepatotoxicity (acute)>
0

$$$$

// next item, Hepatotoxicity (acute) requested
Quick note, Hepatotoxicity (acute) for O=c1[nH]c(=O)n([C@@H]2O[C@H](CO)[C@@H](O)[C@@H]2F)cc1I [FIALURIDINE] landed at 1
